- system: S. aureus CrtM (dehydrosqualene synthase) (Staphylococcus aureus)
- Sequence (A9JQL9 whole entry): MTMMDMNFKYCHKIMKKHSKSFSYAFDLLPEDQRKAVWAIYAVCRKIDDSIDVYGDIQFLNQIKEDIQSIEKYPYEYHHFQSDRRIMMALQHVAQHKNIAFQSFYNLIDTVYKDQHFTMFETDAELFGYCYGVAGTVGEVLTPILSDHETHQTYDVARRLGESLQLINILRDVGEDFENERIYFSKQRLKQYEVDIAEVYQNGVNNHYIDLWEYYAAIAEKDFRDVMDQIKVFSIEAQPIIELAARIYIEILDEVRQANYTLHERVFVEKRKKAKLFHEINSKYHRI
- method summary: CrtM enzyme inhibition assay
measured endpoint: IC50

> print(dat)
                                   compound  measured.endpoint  data.value
1  Cc1ccc(-c2ccc(CCCN(O)C(=O)CP(=O)(O)O)cc2)cc1               IC50    > 1.5 mM

Data request: Output IC50 of O=C(O)CC(=O)NCCCc1cccc(Oc2ccccc2)c1
Data returned: > 1.5 mM

Data request: Output IC50 of O=P([O-])([O-])C(CCc1cccc(Oc2ccccc2)c1)S(=O)(=O)[O-].[K+].[K+].[K+] (stereo not shown) [Compound 15, tripotassium salt]
Data returned: > 0.5 mM

Data request: Output IC50 of O=C(CCCCc1ccc(Oc2ccccc2)cc1)CP(=O)(O)O
Data returned: 1.52 mM

Data request: Output IC50 of O=C(CS(=O)(=O)O)NCCCc1cccc(Oc2ccccc2)c1
Data returned: 0.171 mM

Data request: Output IC50 of O=C(CP(=O)(O)O)NCCCCc1cccc(Oc2ccccc2)c1
Data returned: 1.08 mM

Data request: Output IC50 of O=C(CP(=O)(O)O)OCCCc1cccc(Oc2ccccc2)c1
Data returned: 1.19 mM
